Biological target: neural stem cell surface (cell surface molecule(s) of NSCs, not identified) (rat (adult hippocampus, stated in Example 1))
Test: flow cytometry, GFP bacterial clone displaying the peptide on NSCs
Labelling field: enter rule met if recorded % NSCs with Bacteria is less than 40%. Enter rule not met if it equals or exceeds that cut-off.

binder: FWCIRGEYWVCDR [clone 7C-12 peptide]
label: rule not met

Is % NSCs with Bacteria of WRCLGDGYHACVR [clone Co-10 peptide] strictly below 40%? rule not met

Strictly below 40%: is that where % NSCs with Bacteria of STCSWVSSYVCIM [clone Co-13 peptide] sits? rule not met

Hello, I'm reviewing records and need to know if % NSCs with Bacteria of LCCESYICALCHY [clone 7C-11 peptide] is below 40%. Could you check? rule met

Please state whether % NSCs with Bacteria is below 40% for DLCTYGHLWLGNGRP [clone 15-59 peptide] rule met
